Origin of measurements: patent US20250320312A1

- test-system: BSA (UniProt P02769)
- Sequence (P02769 25-607 limits assumed): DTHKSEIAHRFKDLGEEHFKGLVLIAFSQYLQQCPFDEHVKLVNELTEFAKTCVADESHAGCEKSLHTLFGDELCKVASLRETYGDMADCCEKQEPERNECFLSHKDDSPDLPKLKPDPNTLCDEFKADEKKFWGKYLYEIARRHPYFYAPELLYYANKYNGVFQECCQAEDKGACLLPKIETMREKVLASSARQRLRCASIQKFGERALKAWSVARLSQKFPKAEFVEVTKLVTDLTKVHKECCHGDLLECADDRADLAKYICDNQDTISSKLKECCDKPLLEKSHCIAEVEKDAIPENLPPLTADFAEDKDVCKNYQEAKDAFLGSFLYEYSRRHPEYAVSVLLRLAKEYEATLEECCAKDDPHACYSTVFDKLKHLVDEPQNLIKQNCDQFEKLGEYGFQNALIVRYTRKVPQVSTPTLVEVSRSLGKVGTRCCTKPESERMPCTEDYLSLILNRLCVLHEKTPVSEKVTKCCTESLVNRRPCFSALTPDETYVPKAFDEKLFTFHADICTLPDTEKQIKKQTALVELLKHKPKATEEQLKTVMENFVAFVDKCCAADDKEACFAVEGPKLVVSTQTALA
- assay-info: scFv ELISA
measurement-kind: OD450
Put down the number, then write its unit next to it.

PcOxP_DB01_H07 (scFv, V domains shown, scFv in periplasmic extract) VH: EVQLLESGGGLVQPGGSLRLSCAASGFTFSDHYMEWVRQAPGKGLEWVAASRNKYNDYTTEYADSVKGRFTISRDNSKNTLYLQMNSLRAEDTAVYYCARDIYGSSYWYFDVWGQGTLVTVSS VL: DIVMTQSPDSLAVSLGERATINCTASESVYSSKNKKHYLAWYQQKPGQPPKLLIYGASNRYIGVPDRFSGSGSGTDFTLTISSLQAEDVAVYYCAQFYSYPLTFGGGTKVEIK    0.07 OD450

Prompt: Param item = PcOxP_DB03_B03 (scFv, V domains shown, scFv in periplasmic extract) VH: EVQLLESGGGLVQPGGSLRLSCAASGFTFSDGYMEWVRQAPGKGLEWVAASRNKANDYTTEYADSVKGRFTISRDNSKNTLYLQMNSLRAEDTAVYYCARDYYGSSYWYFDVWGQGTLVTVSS VL: DIVMTQSPDSLAVSLGERATINCTASESLYSSKHKVHYLAWYQQKPGQPPKLLIYGASNRYIGVPDRFSGSGSGTDFTLTISSLQAEDVAVYYCAQFYVYPLTFGGGTKVEIK ; retrieve measured OD450.
Completion: 0.07 OD450
